Test system: K. aerogenes ATCC 13048
Assay type: cell-based, Klebsiella aerogenes
test-conditions: ATCC 13048, 18 h
Description: The Acinetobacter baumannii ATCC BAA-1605, Candida albicans ATCC 10231, Enterococcus faecium ATCC 700221, Klebsiella aerogenes ATCC 13048 (previously known as Enterobacter aerogenes), Klebsiella pneumoniae ATCC 700603, Pseudomonas aeruginosa ATCC 9027, Staphylococcus aureus ATCC 25923 and MRSA ATCC 33591, were acquired from the American Type Culture Collection (ATCC). […] The MICs were determined by broth microdilution method according to the Clinical and Laboratory Standard Institute guidelines. […]
Residues, ends and D or L forms follow the SMILES beside them.
Listed below: MIC E2 values for each entry.
Number only, in µg/mL; omit the unit.

# compound, study-target, readout-label, result-number
rows = [
    ("CCCCCCCCCCCC(=O)N[C@@H](Cc1ccccc1)C(=O)N[C@@H](CCCNC(=N)N)C(=O)N[C@@H](CCCNC(=N)N)C(N)=O [compound 25, C12-FRR-NH2] (HELM PEPTIDE1{[CCCCCCCCCCCC(=O)[*:2]].F.R.R.[am]}$$$$V2.0)", "K. aerogenes ATCC 13048", "MIC E2", 256),
]

Next, consider the following compound.
Noted for CCCCCCCCCCCCCC(=O)N[C@@H](CCS(C)(=O)=O)C(=O)N[C@@H](CCCNC(=N)N)C(=O)N[C@@H](CCCNC(=N)N)C(N)=O [compound 58, C14-M(O2)RR-NH2] (HELM PEPTIDE1{[CCCCCCCCCCCCCC(=O)[*:2]].[CS(=O)(=O)CC[C@H](N[*:1])C(=O)[*:2]].R.R.[am]}$$$$V2.0) : its MIC E2 reads 256
